# target.or.test.system: human DP2 receptor (Homo sapiens)
# Construct: expressed in transfected cells
# Sequence (Q9Y5Y4 whole entry): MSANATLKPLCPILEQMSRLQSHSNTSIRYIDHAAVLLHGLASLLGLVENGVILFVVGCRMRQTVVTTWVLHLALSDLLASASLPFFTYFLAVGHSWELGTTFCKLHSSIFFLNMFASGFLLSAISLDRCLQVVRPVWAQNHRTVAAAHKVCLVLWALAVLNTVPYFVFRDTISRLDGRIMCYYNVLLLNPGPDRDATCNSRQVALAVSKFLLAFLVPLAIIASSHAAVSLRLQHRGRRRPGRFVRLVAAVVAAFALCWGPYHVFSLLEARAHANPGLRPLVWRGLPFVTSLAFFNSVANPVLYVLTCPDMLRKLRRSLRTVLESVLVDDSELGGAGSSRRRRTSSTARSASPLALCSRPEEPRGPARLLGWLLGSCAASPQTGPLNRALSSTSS
# experiment.summary: DP2/CRTH2 radioligand binding assay using [3H]PGD2
# condition.parameters: [3H]PGD2 binding, membranes of HEK293 cells expressing recombinant human DP2; read-out: hDP2
Here the recorded IC50 is given for each entry.

Examples with answers:
If you can, please state the reported IC50 value of CCN(Cc1cc(C(F)(F)F)ccc1-c1cc(CC(=O)O)ccc1OC)C(=O)N[C@@H](C)c1ccc(Cl)cc1 .
< 0.3 µM

If you can, please state the reported IC50 value of CCN(Cc1cc(F)ccc1-c1cc(CC(=O)O)ccc1OC)C(C)=O .
< 0.3 µM

If you can, please state the reported IC50 value of CCN(Cc1cc(NS(C)(=O)=O)ccc1-c1cc(CC(=O)O)ccc1OC)C(=O)OCc1ccccc1 .
< 0.3 µM

If you can, please state the reported IC50 value of CCN(Cc1cc(C(F)(F)F)ccc1-c1cc(CC(=O)O)ccc1OC)C(=O)OCc1ccc(Cl)cc1 .
< 0.3 µM

If you can, please state the reported IC50 value of O=C(O)Cc1ccc(F)c(-c2ccc(C(F)(F)F)cc2CN(CC(F)(F)F)C(=O)OCc2ccccc2)c1 .
> 1 µM

If you can, please state the reported IC50 value of CCN(Cc1cc(F)ccc1-c1cc(CC(=O)O)ccc1OC)C(=O)NCc1ccc(Cl)cc1 .
< 0.3 µM

If you can, please state the reported IC50 value of CCN(Cc1cc(C(F)(F)F)ccc1-c1cc(CC(=O)O)ccc1OC)C(=O)NCc1ccccc1O .
< 0.3 µM

If you can, please state the reported IC50 value of CCN(Cc1cc(C(F)(F)F)ccc1-c1cc(CC(=O)O)ccc1OC)C(=O)NCc1cccc(O)c1 .
< 0.3 µM

If you can, please state the reported IC50 value of CCN(Cc1cc(C(F)(F)F)ccc1-c1cc(CC(=O)O)ccc1OC)C(=O)COCc1ccccc1 .
< 0.3 µM

If you can, please state the reported IC50 value of O=C(O)CCn1c2c(c3ccccc31)C[C@H](NS(=O)(=O)c1ccc(F)cc1)CC2 [Ramatroban, reference compound] .
0.3 to 1 µM

Continuing:
If you can, please state the reported IC50 value of CCN(Cc1cc(C(F)(F)F)ccc1-c1cc(CC(=O)O)ccc1OC)C(=O)C(C)C .
< 0.3 µM

If you can, please state the reported IC50 value of CCN(Cc1cc(C(F)(F)F)ccc1-c1cc(CC(=O)O)ccc1OC)C(=O)NCc1cc(Cl)cc(Cl)c1 .
< 0.3 µM

If you can, please state the reported IC50 value of CCN(Cc1cc(C(F)(F)F)ccc1-c1cc(CC(=O)O)ccc1OC)C(=O)COc1ccc(Cl)cc1 .
< 0.3 µM

If you can, please state the reported IC50 value of CCN(Cc1cc(C(F)(F)F)ccc1-c1cc(CC(=O)O)ccc1OC)C(=O)OC .
< 0.3 µM

If you can, please state the reported IC50 value of CCN(Cc1cc(C(F)(F)F)ccc1-c1cc(CC(=O)O)ccc1O)C(=O)NCc1ccccc1 .
< 0.3 µM

If you can, please state the reported IC50 value of CCN(Cc1ccccc1)C(=O)N(CC)Cc1cc(C(F)(F)F)ccc1-c1cc(CC(=O)O)ccc1OC .
< 0.3 µM

If you can, please state the reported IC50 value of CN(Cc1cc(C(F)(F)F)ccc1-c1cc(CC(=O)O)ccc1F)C(=O)OCc1ccccc1 .
< 0.3 µM

Where do these numbers come from? They come from patent US20110098352A1.
